# Study System: human TLR7 (Homo sapiens, UniProt Q9NYK1)
# Sequence (Q9NYK1 27-1049): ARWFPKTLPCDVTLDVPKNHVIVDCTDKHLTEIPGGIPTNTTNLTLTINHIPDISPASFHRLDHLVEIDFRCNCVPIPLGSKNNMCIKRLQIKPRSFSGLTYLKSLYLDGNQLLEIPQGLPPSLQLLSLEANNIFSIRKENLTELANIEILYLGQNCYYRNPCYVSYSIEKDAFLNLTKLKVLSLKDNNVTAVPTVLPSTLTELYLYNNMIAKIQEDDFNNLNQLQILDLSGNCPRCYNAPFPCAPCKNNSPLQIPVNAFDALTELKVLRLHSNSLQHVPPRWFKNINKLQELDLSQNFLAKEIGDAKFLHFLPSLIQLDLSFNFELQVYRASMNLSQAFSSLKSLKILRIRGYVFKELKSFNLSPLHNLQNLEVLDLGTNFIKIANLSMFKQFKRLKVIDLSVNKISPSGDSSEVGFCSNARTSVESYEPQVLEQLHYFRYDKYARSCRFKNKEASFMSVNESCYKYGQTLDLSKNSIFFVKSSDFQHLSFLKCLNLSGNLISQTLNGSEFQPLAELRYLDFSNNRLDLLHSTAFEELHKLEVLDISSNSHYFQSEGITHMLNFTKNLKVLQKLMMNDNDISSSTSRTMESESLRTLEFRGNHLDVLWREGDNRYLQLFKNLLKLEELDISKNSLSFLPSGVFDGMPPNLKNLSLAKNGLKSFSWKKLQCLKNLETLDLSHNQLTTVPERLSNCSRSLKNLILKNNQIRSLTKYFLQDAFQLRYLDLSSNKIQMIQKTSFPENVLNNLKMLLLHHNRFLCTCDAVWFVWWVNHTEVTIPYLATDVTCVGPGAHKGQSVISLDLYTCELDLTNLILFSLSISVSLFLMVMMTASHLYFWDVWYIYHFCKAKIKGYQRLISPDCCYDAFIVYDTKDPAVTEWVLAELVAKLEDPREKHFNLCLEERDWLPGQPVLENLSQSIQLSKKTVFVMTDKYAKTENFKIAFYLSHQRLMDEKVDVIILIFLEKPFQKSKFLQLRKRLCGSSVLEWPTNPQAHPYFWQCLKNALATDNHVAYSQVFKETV
# Protocol Description: TLR7 inhibition reporter assay (HEK-Blue SEAP reporter, gardiquimod stimulation)
# Conditions: HEK-Blue cells overexpressing human TLR7, SEAP reporter, gardiquimod 7.5 μM, 22 hour incubation
Outcome Measure: pIC50
Bear in mind: pIC50 is minus log10 of a mol/L concentration; give just that figure.

The examples below pair each entry with its known result.
Molecule: Cc1cc(-c2[nH]c3ccc(C4CCN(Cc5cc(OC(F)F)ccc5F)CC4)cc3c2C(C)C)cn(C)c1=O [Example 78]
Value: 7.17

Molecule: Cc1nn(C)cc1CN1CCC(c2ccc3[nH]c(-c4cc(C)c(=O)n(C)c4)c(C(C)C)c3c2)CC1 [Example 232]
Value: 8.54

Molecule: CCn1cc(-c2[nH]c3ccc(C4CCNCC4)cc3c2C(C)C)c(C)c(C)c1=O [Example 26]
Value: 7.92

// query Query (molecule): CCc1cc(-c2[nH]c3ccc(C4CCN(CC(=O)N(C)C)CC4)cc3c2C(C)C)cn(C)c1=O [Example 168] ; field requested: pIC50
// result 8.10

// query Query (molecule): Cc1c(-c2[nH]c3ccc(C4CCN(CC(=O)N(C)C)CC4)cc3c2C(C)C)cn(C)c(=O)c1Cl [Example 152] ; field requested: pIC50
// result 8.85

// query Query (molecule): CC(C)CN1CCC(c2ccc3[nH]c(-c4cc(-c5cncnc5)c(=O)n(C)c4)c(C(C)C)c3c2)CC1 [Example 256] ; field requested: pIC50
// result 7.91
